# Percent Control listing for each entry below
- System: CDK8
- condition: Compound Concentration (nM):1000;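 note: KINOMEscan scanMAX binding as percent activity remaining versus control; lower means stronger binding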

molecule	Percent Control [%]
COc1ccc2c(-c3ccnc(Nc4cccc(OC(F)(F)F)c4)n3)cnn2n1 [GW810372X]	90
Nc1ncnc2occ(-c3ccc(NC(=O)Nc4cc(C(F)(F)F)ccc4F)cc3)c12 [GW770249X]	0
COc1cc(/C=N/Nc2ncnc3[nH]ncc23)ccc1O [GW578748X]	83
COc1ccc(COc2ccc(Cc3cnc(N)nc3N)cc2OC)cc1 [GW632580X]	100
C/C(Nc1ccc(S(N)(=O)=O)cc1)=C1/C(=O)Nc2ccccc21 [GW335962X]	78
CC1=C(C(=O)Nc2ccc3[nH]ncc3c2)C(c2ccc3ccccc3c2)CC(=O)N1 (stereo not drawn) [GSK270822A]	71
Cl.c1ccc(Cc2nc3ccc(Nc4ncnc5ccccc45)cc3[nH]2)cc1 [GR269666A]	88
COc1cc2ncnc(Nc3ccc4c(cnn4Cc4ccccc4)c3)c2cc1OC.Cl [GW282449A]	100
COc1cccc(-c2c[nH]c3c(N/N=C/c4ccncc4)ncnc23)c1 [GW814408X]	100

---

- Test system: TAOK1
- condition: Compound Concentration (nM):1000
Quick list: Percent Control per entry.

compound	study system	Percent Control
COc1cccc(-n2ncc3c(N/N=C/c4ccncc4)ncnc32)c1 [GW784752X]	TAOK1	39%
COc1cccc(-c2c[nH]c3c(N/N=C/c4ccncc4)ncnc23)c1 [GW814408X]	TAOK1	11%
O=C(Nc1n[nH]c2nc(-c3ccc(O)cc3)c(Br)cc12)C1CC1	TAOK1	1%
Cl.O=C(O[C@H]1CN[C@H](C#Cc2cc3ncnc(Nc4ccc5c(cnn5Cc5ccccc5)c4)c3s2)C1)N1CCOCC1 [GSK200398A]	TAOK1	91%
COc1cc(C=NNc2ncnc3c2cnn3-c2ccccc2)ccc1O [GW513184X]	TAOK1	100%
CC1=C(C(=O)Nc2ccc3[nH]ncc3c2)C(c2ccc(Cl)c(Cl)c2)CC(=O)N1 (centres unmarked) [GSK299115A]	TAOK1	68%
Cl.O=C(Nc1ccc(Oc2ccc3[nH]c(NC(=O)c4ccco4)nc3c2)cc1)Nc1cc(C(F)(F)F)ccc1F [GW683134A]	TAOK1	100%
Cl.c1ccc(Cc2nc3ccc(Nc4ncnc5ccccc45)cc3[nH]2)cc1 [GR269666A]	TAOK1	100%

---

Reported Percent Control values for a set of compounds
- Test system: MST1R
- condition: Compound Concentration (nM):1000
measured attribute: Percent Control (%)

compound	measured attribute	result number
COc1cc(C=NNc2ncnc3c2cnn3-c2ccccc2)ccc1O [GW513184X]	Percent Control	29
CC1=C(C(=O)Nc2ccc3[nH]ncc3c2)C(c2ccc3ccccc3c2)CC(=O)N1 (stereo not shown) [GSK270822A]	Percent Control	46
COc1cc2ncnc(Nc3ccc4c(cnn4Cc4ccccc4)c3)c2cc1OC.Cl [GW282449A]	Percent Control	100
CN1CCN(C(=O)c2ccc(NC(=O)Nc3ccc(N(C)c4ccnc(Nc5ccc(CS(C)(=O)=O)cc5)n4)cc3)cc2)CC1.Cl [GW830263A]	Percent Control	41

---

- System: KIT(D816H)
- condition: Compound Concentration (nM):1000
measured attribute: Percent Control (%)

compound	result number
CCS(=O)(=O)c1ccc(OC)c(Nc2ncc(-c3cccc(OC)c3)o2)c1 [GW580509X]	52
CCc1ccc(Oc2nccc(-c3c(-c4ccc(F)cc4)ncn3C3CCNCC3)n2)cc1	73
COc1ccccc1-c1cc(/C=C2\C(=O)Nc3ncc(Br)cc32)cc(Br)c1O [GW442130X]	100
NS(=O)(=O)c1ccc(Nc2ncc(-c3ccccc3)o2)cc1 [GW572399X]	100
Cl.O=S1CCN(Cc2ccc(-c3ccc4ncnc(Nc5ccc(OCc6ccccc6)c(F)c5)c4c3)o2)CC1 [GW576924A]	100

---

Measured Percent Control accompanies every entry in the list below.
- System: LZK
- Construct: gene MAP3K13
- condition: Compound Concentration (nM):1000

compound	Percent Control / %
COc1cc(/C=N/Nc2ncnc3[nH]ncc23)ccc1O [GW578748X]	100
O=C1Nc2ccc(C(=O)c3ccco3)cc2C1=Cc1cc(Cl)c(O)c(Cl)c1 [GW406108X]	94
Cl.O=S1CCN(Cc2ccc(-c3ccc4ncnc(Nc5ccc(OCc6ccccc6)c(F)c5)c4c3)o2)CC1 [GW576924A]	100
CCS(=O)(=O)c1ccc(OC)c(Nc2ncc(-c3cccc(F)c3)o2)c1 [GW621970X]	100
COc1ccc(COc2ccc(Cc3cnc(N)nc3N)cc2OC)cc1 [GW632580X]	77
Nc1ncnc2occ(-c3ccc(NC(=O)Nc4cc(C(F)(F)F)ccc4F)cc3)c12 [GW770249X]	100

---

- Tested on: MLK2
- Construct: gene MAP3K10
- condition: Compound Concentration (nM):1000
Items are presented alongside their recorded Percent Control.
measured attribute: Percent Control

compound	measured attribute	result
NS(=O)(=O)c1ccc(N/N=C2\C(=O)Nc3ccc(-c4cnco4)cc32)cc1	Percent Control	64%
COc1cc2ncnc(Nc3ccc4c(cnn4Cc4ccccc4)c3)c2cc1OC.Cl [GW282449A]	Percent Control	100%
CCn1c(-c2nonc2N)nc2c(C#CC(C)(C)O)nc(OCCNC)cc21.Cl	Percent Control	100%
COc1ccc2[nH]c3c4[nH]c5ccc(OC)cc5c4c4c(c3c2c1)C(=O)NC4=O [GW296115X]	Percent Control	83%

---

- Test system: CLK3
- condition: Compound Concentration (nM):1000
So basically, if Percent Control comes in under 90% it's criterion met, and if it's 90% or more it's criterion not met.

compound	study system	category
NS(=O)(=O)c1ccc(Nc2ncc(-c3ccccc3)o2)cc1 [GW572399X]	CLK3	criterion not met
O=C1Nc2ccc(C(=O)c3ccco3)cc2C1=Cc1cc(Cl)c(O)c(Cl)c1 [GW406108X]	CLK3	criterion met
COc1ccc2c(-c3ccnc(Nc4cccc(OC(F)(F)F)c4)n3)cnn2n1 [GW810372X]	CLK3	criterion met
NS(=O)(=O)c1ccc(N/N=C2\C(=O)Nc3ccc(C(=O)NCCc4c[nH]cn4)cc32)cc1 [GW300660X]	CLK3	criterion not met
CC(C)COC(=O)c1ccc2c(c1)/C(=C/Nc1ccc(S(N)(=O)=O)cc1)C(=O)N2 [GW416981X]	CLK3	criterion not met
Cc1cc(O)cc(C)c1/C=C/c1cncc(C(N)=O)c1 [GW435821X]	CLK3	criterion not met
CCn1c(-c2nonc2N)nc2c(C#CC(C)(C)O)nc(OCCNC)cc21.Cl	CLK3	criterion not met
Cl.O=C(Nc1ccc(Oc2ccc3[nH]c(NC(=O)c4ccccc4)nc3c2)cc1)Nc1cc(C(F)(F)F)ccc1F [GW709042A]	CLK3	criterion not met
COc1ccc2[nH]c3c4[nH]c5ccc(OC)cc5c4c4c(c3c2c1)C(=O)NC4=O [GW296115X]	CLK3	criterion met
COc1cc2ncn(-c3cc(O[C@H](C)c4ccccc4Cl)c(C(N)=O)s3)c2cc1OC [GSK237701A]	CLK3	criterion met
C/C(Nc1ccc(S(N)(=O)=O)cc1)=C1/C(=O)Nc2ccccc21 [GW335962X]	CLK3	criterion not met
COc1ccc(COc2ccc(Cc3cnc(N)nc3N)cc2OC)cc1 [GW632580X]	CLK3	criterion not met
C[C@@H](Oc1cc(-n2cnc3ccc(OC4CCN(C)CC4)cc32)sc1C(N)=O)c1ccccc1Cl [GSK579289A]	CLK3	criterion met
COc1cc2ncnc(Nc3ccc4c(cnn4Cc4ccccc4)c3)c2cc1OC.Cl [GW282449A]	CLK3	criterion not met
CC1=C(C(=O)Nc2ccc3[nH]ncc3c2)C(c2ccc(Cl)c(Cl)c2)CC(=O)N1 (centres unmarked) [GSK299115A]	CLK3	criterion met

---

The following compounds are listed with their measured Percent Control values.
- Tested on: ERK3
- Construct: gene MAPK6
- condition: Compound Concentration (nM):1000

compound	study system	Percent Control
CC1=C(C(=O)Nc2ccc3[nH]ncc3c2)C(c2ccc3ccccc3c2)CC(=O)N1 (stereo not drawn) [GSK270822A]	ERK3	100%
COc1ccc(COc2ccc(Cc3cnc(N)nc3N)cc2OC)cc1 [GW632580X]	ERK3	87%
COc1ccccc1-c1cc(/C=C2\C(=O)Nc3ncc(Br)cc32)cc(Br)c1O [GW442130X]	ERK3	100%
C[C@@H](Oc1cc(-n2cnc3ccc(OC4CCN(C)CC4)cc32)sc1C(N)=O)c1ccccc1Cl [GSK579289A]	ERK3	97%
COc1cc(/C=N/Nc2ncnc3[nH]ncc23)ccc1O [GW578748X]	ERK3	57%
COc1ccc2[nH]c3c4[nH]c5ccc(OC)cc5c4c4c(c3c2c1)C(=O)NC4=O [GW296115X]	ERK3	84%
CCn1c(-c2nonc2N)nc2c(C#CC(C)(C)O)nc(OCCNC)cc21.Cl	ERK3	100%
O=C(Nc1n[nH]c2nc(-c3ccc(O)cc3)c(Br)cc12)C1CC1	ERK3	100%
COc1cc2ncnc(Nc3ccc4c(cnn4Cc4ccccc4)c3)c2cc1OC.Cl [GW282449A]	ERK3	100%
